Entries and their measured MC3R selectivity (relative to MC4R) follow.
Target: human MC3R (human, UniProt P41968 1-323)
Sequence (P41968 whole entry): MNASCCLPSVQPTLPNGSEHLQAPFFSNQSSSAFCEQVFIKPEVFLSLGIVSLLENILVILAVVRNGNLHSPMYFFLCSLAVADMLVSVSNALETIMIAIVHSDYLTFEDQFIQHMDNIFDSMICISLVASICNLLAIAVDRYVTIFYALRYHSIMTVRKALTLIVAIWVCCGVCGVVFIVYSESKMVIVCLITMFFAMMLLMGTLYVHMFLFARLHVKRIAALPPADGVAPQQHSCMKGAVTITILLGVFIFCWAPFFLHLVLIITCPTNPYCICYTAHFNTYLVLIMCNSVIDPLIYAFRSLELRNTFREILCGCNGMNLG
Assay: cell-based or functional assay
Non-standard residues stand in square brackets, D forms with d. PKcap1 = N-terminal cap C18 diacid-γGlu-mPEG2; PKcap2 = N-terminal cap Aryl(4-I)-Gly-mPEG2; Phe(4-I) = N[C@@H](Cc1ccc(I)cc1)C(=O)O; dNle = CCCC[C@@H](N)C(=O)O; Nle = CCCC[C@H](N)C(=O)O; Aib = CC(C)(N)C(=O)O
Respond using a number only.

Guide cases for MC3R selectivity (relative to MC4R), answers given:
Ac-[Nle][dA]HFR[dW]DR[dF]-NH2 (SMILES CCCC[C@H](NC(C)=O)C(=O)N[C@H](C)C(=O)N[C@@H](Cc1c[nH]cn1)C(=O)N[C@@H](Cc1ccccc1)C(=O)N[C@@H](CCCNC(=N)N)C(=O)N[C@H](Cc1c[nH]c2ccccc12)C(=O)N[C@@H](CC(=O)O)C(=O)N[C@@H](CCCNC(=N)N)C(=O)N[C@H](Cc1ccccc1)C(N)=O) [CTX-1159] = 213
Ac-YVE[Aib]H[Phe(4-I)]R[dW]DRFG-OH (SMILES CC(=O)N[C@@H](Cc1ccc(O)cc1)C(=O)N[C@H](C(=O)N[C@@H](CCC(=O)O)C(=O)NC(C)(C)C(=O)N[C@@H](Cc1c[nH]cn1)C(=O)N[C@@H](Cc1ccc(I)cc1)C(=O)N[C@@H](CCCNC(=N)N)C(=O)N[C@H](Cc1c[nH]c2ccccc12)C(=O)N[C@@H](CC(=O)O)C(=O)N[C@@H](CCCNC(=N)N)C(=O)N[C@@H](Cc1ccccc1)C(=O)NCC(=O)O)C(C)C) [CTX-1195] = 51
Ac-[Nle][dA]HFR[dW]G-NH2 (SMILES CCCC[C@H](NC(C)=O)C(=O)N[C@H](C)C(=O)N[C@@H](Cc1c[nH]cn1)C(=O)N[C@@H](Cc1ccccc1)C(=O)N[C@@H](CCCNC(=N)N)C(=O)N[C@H](Cc1c[nH]c2ccccc12)C(=O)NCC(N)=O) [CTX-1540] = 11
PKcap1-GV[Nle][dA]HFR[dW]DRFG-OH [CTX-1149 (PKcap1, SEQ ID NO 40)] = 215
PKcap1-G[Nle][dA]HFR[dW]DRFG-OH [CTX-1147] = 335
Ac-[Nle][dNle]HFR[dW]DRFG-OH (SMILES CCCC[C@H](NC(C)=O)C(=O)N[C@H](CCCC)C(=O)N[C@@H](Cc1c[nH]cn1)C(=O)N[C@@H](Cc1ccccc1)C(=O)N[C@@H](CCCNC(=N)N)C(=O)N[C@H](Cc1c[nH]c2ccccc12)C(=O)N[C@@H](CC(=O)O)C(=O)N[C@@H](CCCNC(=N)N)C(=O)N[C@@H](Cc1ccccc1)C(=O)NCC(=O)O) [CTX-1182] = 1410

# input for lookup
Asked: So what's the measured MC3R selectivity (relative to MC4R) for this one? PKcap2-G[Nle][dA]HFR[dW]DRFG-OH [CTX-1148]
Given back: 1200

Ref: patent US20240287154A1
